# Species: Rattus norvegicus
# assay name: Open TG-GATES - Regimen: Single
# Assay type: toxicity, organism-based, Sprague-Dawley
# Parameters: regimen Single, gender Male, age 6 weeks
# stated conditions: in vivo, po, 0 mg/kg, 24 h, tissue Blood, route gavage, dose level Control
assay metric: Bas (%)
Express the result in % but write the number alone.

A selection of reference data follows.
NC1=NC(=O)C(c2ccccc2)O1 (stereo not drawn) = 0
CCCc1cc(=O)[nH]c(=S)[nH]1 = 0
CNC(=C[N+](=O)[O-])NCCSCc1ccc(CN(C)C)o1 = 0.2

Value of measured Bas for the entry CCOc1ccc(NC(C)=O)cc1 : 0

Entry CN1C(=O)CCS(=O)(=O)C1c1ccc(Cl)cc1 (stereo not drawn) ; Bas = 0.2

Entry CN(C)CCC(c1ccc(Cl)cc1)c1ccccn1 (stereo not drawn) — recorded Bas = 0

Data point: Nc1c2c(nc3ccccc13)CCCC2 ; Bas = 0

Measured Bas of Brc1ccccc1 : 0

###

# Species on record: Rattus norvegicus
# assay name: Open TG-GATES - Regimen: Single
# Type: toxicity, organism-based, Sprague-Dawley
# Design: regimen Single, gender Male, age 6 weeks
# stated conditions: in vivo, po, 0 mg/kg, 6 h, tissue Blood, route gavage, dose level Control
Below, each entry is listed with its recorded Hb.
// note: answer is a bare numeric in g/dL

CC(C)NNC(=O)c1ccncc1 [IPRONIAZID] = 13.3
CN1C(=O)CCS(=O)(=O)C1c1ccc(Cl)cc1 (stereo not drawn) [CHLORMEZANONE] = 13.7
NC1=NC(=O)C(c2ccccc2)O1 (stereo not drawn) [PEMOLINE] = 13.3
O=C(OC[C@H]1O[C@@H](OC(=O)c2cc(O)c(O)c(OC(=O)c3cc(O)c(O)c(O)c3)c2)[C@H](OC(=O)c2cc(O)c(O)c(OC(=O)c3cc(O)c(O)c(O)c3)c2)[C@@H](OC(=O)c2cc(O)c(O)c(OC(=O)c3cc(O)c(O)c(O)c3)c2)[C@@H]1OC(=O)c1cc(O)c(O)c(OC(=O)c2cc(O)c(O)c(O)c2)c1)c1cc(O)c(O)c(OC(=O)c2cc(O)c(O)c(O)c2)c1 [TANNIC ACID] = 13.1
CNC(=C[N+](=O)[O-])NCCSCc1ccc(CN(C)C)o1 [RANITIDINE] = 13.6

According to the records, this compound Cc1nnc2n1-c1ccc(Cl)cc1C(c1ccccc1Cl)=NC2 [TRIAZOLAM] displays Hb of 13.6

Reported Hb ( CCOc1ccc(NC(C)=O)cc1 [PHENACETIN] ) = 13.6

// recorded Hb for CN/C(=N/CCSCc1nc[nH]c1C)NC#N [CIMETIDINE] : 13.2

Item: Nc1c2c(nc3ccccc13)CCCC2 [TACRINE] | Hb: 13.3

Short answer for COC(=O)C1=C(C)NC(C)=C(C(=O)OC)C1c1ccccc1[N+](=O)[O-] [NIFEDIPINE] : Hb was 13.5

Given item CCCc1cc(=O)[nH]c(=S)[nH]1 [PROPYLTHIOURACIL] , the value recorded as its Hb is 13

Entry CN(C)CCC(c1ccc(Cl)cc1)c1ccccn1 (stereo not drawn) [CHLORPHENIRAMINE] — recorded Hb = 12.8

Lab note: measured Hb of Brc1ccccc1 [BROMOBENZENE] was 13
